Assay: Human PK, second comparative study: single dose food and PPI assessment of 100 mg powder-in-capsule (Panels J-M)
Assay type: in vivo
Details: plasma, oral, 100 mg PIC single dose, Panel L: fasted + rabeprazole 20 mg BID, read-out: plasma AUCinf, Mean
Metric Name: AUC(0-inf) (µM·h)
I only need the number, in µM·h, no unit after it.

## Input Fill in reported AUC(0-inf) for this entry: C[C@H]1CN(C2COC2)CCN1c1ccc(Nc2cc(-c3ccnc(N4CCn5c(cc6c5CC(C)(C)C6)C4=O)c3CO)cn(C)c2=O)nc1 [Compound (I) free base]
## Output 0.274

====

Assay: Human PK, second comparative study: single dose food and PPI assessment of 100 mg powder-in-capsule (Panels J-M)
Assay type: in vivo
Conditions: plasma, oral, 100 mg PIC single dose, Panel M: high fat breakfast + rabeprazole 20 mg BID, read-out: plasma Tmax, Median
Metric Name: Tmax (h)
I only need the number, in h, no unit after it.

## Input Fill in reported Tmax for this entry: C[C@H]1CN(C2COC2)CCN1c1ccc(Nc2cc(-c3ccnc(N4CCn5c(cc6c5CC(C)(C)C6)C4=O)c3CO)cn(C)c2=O)nc1 [Compound (I) free base]
## Output 7

====

Assay: Solubility of compound (I) free base in buffers of varying pH, FeSSIF and FaSSIF
Format: physicochemical
Conditions: aqueous buffer, pH 2.6, aqueous buffer; pH 2.60; read-out: Solubility
Metric Name: solubility (µg/mL)
I only need the number, in µg/mL, no unit after it.

## Input Fill in reported solubility for this entry: C[C@H]1CN(C2COC2)CCN1c1ccc(Nc2cc(-c3ccnc(N4CCn5c(cc6c5CC(C)(C)C6)C4=O)c3CO)cn(C)c2=O)nc1 [Compound (I) free base]
## Output 6480

====

Assay: Human PK, second comparative study: single dose food and PPI assessment of 100 mg powder-in-capsule (Panels J-M)
Format: in vivo
Conditions: plasma, oral, 100 mg, 100 mg PIC single dose, Panel J: fasted, no PPI, read-out: plasma AUClast, Median
Metric Name: AUC(0-t) (µM·h)
I only need the number, in µM·h, no unit after it.

## Input Fill in reported AUC(0-t) for this entry: C[C@H]1CN(C2COC2)CCN1c1ccc(Nc2cc(-c3ccnc(N4CCn5c(cc6c5CC(C)(C)C6)C4=O)c3CO)cn(C)c2=O)nc1 [Compound (I) free base]
## Output 1

====

Test: Human PK, second comparative study: single dose food and PPI assessment of 100 mg powder-in-capsule (Panels J-M)
Type: in vivo
Details: plasma, oral, 100 mg PIC single dose, Panel M: high fat breakfast + rabeprazole 20 mg BID, read-out: plasma AUCinf, Median
Metric Name: AUC(0-inf) (µM·h)
I only need the number, in µM·h, no unit after it.

## Input Fill in reported AUC(0-inf) for this entry: C[C@H]1CN(C2COC2)CCN1c1ccc(Nc2cc(-c3ccnc(N4CCn5c(cc6c5CC(C)(C)C6)C4=O)c3CO)cn(C)c2=O)nc1 [Compound (I) free base]
## Output 0.67

====

Test: Solubility of compound (I) free base in buffers of varying pH, FeSSIF and FaSSIF
Assay type: physicochemical
Conditions: FaSSIF (pH 6.8); read-out: Solubility
Metric Name: solubility (µg/mL)
I only need the number, in µg/mL, no unit after it.

## Input Fill in reported solubility for this entry: C[C@H]1CN(C2COC2)CCN1c1ccc(Nc2cc(-c3ccnc(N4CCn5c(cc6c5CC(C)(C)C6)C4=O)c3CO)cn(C)c2=O)nc1 [Compound (I) free base]
## Output 13
